tested on: Established Adjuvant-Induced Arthritis in Rats; experiment: Established Adjuvant-Induced Arthritis in Rats (uninjected left hind paw volume); format: in vivo, Lewis (Wistar) male rats; conditions: Rattus norvegicus, 504 h; Daily Oral Dose 27 mg/kg, once daily for 7 days (days 14-20), paw volume on day 21; read-out: Percent Decrease from Control Paw Volume
reported_metric: inhibition in vivo at 27 mg/kg (%)
Just the number in %, nothing appended.

Solved cases (2 shown):
[[record]]
molecule = "O=S(=O)(c1cc(-c2ccc(F)cc2)c(-c2ccc(F)cc2)s1)C(F)(F)C(F)F [Example 12]"
reading_unit = "%"
reported = 34

[[record]]
molecule = "COc1ccc(-c2cc(SC(F)(F)C(F)F)sc2-c2ccc(OC)cc2)cc1 [Example 4]"
reading_unit = "%"
reported = 11


Item under review: COc1ccc(-c2cc(S(=O)(=O)C(F)(F)C(F)F)sc2-c2ccc(OC)cc2)cc1 [Example 11] . Reported inhibition in vivo at 27 mg/kg?
23

Input Fc1ccc(-c2cc(SC(F)(F)C(F)F)sc2-c2ccc(F)cc2)cc1 [Example 10]
28

Same for COc1ccc(-c2cc(SC)sc2-c2ccc(OC)cc2)cc1 [Example 3]
43

CSc1cc(-c2ccc(F)cc2)c(-c2ccc(F)cc2)s1 [Example 8] ?
25
